system: P. aeruginosa MDR; assay: microbe, parasite or virus in culture; format: cell-based, Pseudomonas aeruginosa; settings: Pseudomonas aeruginosa, read-out: Gram-negative MIC P. aeruginosa MDR
Parameter MIC: see the listing below.
Give the quantity in µg/mL, number only.

Below, each entry is followed by its recorded MIC result.
INSERT INTO results (chemicalstructure, measurename, uom, observedresult) VALUES
  ('CC(C)(C)c1cccc(C(C)(C)C)c1Oc1ccc([N+](=O)[O-])cc1[N+](=O)[O-]', 'MIC', 'µg/mL', 125),
  ('O=c1c(Cc2ccccc2)nc2ccccc2n1-c1ccc([N+](=O)[O-])cc1[N+](=O)[O-]', 'MIC', 'µg/mL', 125),
  ('Cn1ccc(=O)nc1Sc1ccc([N+](=O)[O-])cc1[N+](=O)[O-]', 'MIC', 'µg/mL', 125);

QUERY: In one line, give reported MIC of the entry O=[N+]([O-])c1ccc(-n2ccnc2)c([N+](=O)[O-])c1 .
RESULT: 125

###

tested on: P. aeruginosa MDR; test: microbe, parasite or virus in culture; assay type: cell-based, Pseudomonas aeruginosa; details: Pseudomonas aeruginosa, read-out: Gram-negative MIC P. aeruginosa MDR
measureName: MIC (µg/mL)
Give the quantity in µg/mL, number only.

INSERT INTO results (molecule, uom, observedresult) VALUES
  ('Cc1nc2ccccc2n(-c2ccc([N+](=O)[O-])cc2[N+](=O)[O-])c1=O [Compound 4]', 'µg/mL', 125),
  ('O=[N+]([O-])c1ccc(Sc2nc3ccccc3s2)c([N+](=O)[O-])c1 [Compound 6]', 'µg/mL', 125);

Could you now look at the following molecule, please?
QUERY: In one line, give reported MIC of the entry O=[N+]([O-])c1ccc(Oc2cccc3cccnc23)c([N+](=O)[O-])c1 [Compound 8, 8-(2,4-Dinitrophenoxy)quinoline] .
RESULT: 125
